Entries with their measured pIC50, system 72 kDa type IV collagenase (Homo sapiens):
pIC50: −log10 of the molar value.

// below: answered compounds
Noted pIC50 for O=C(NO)[C@H]1CC(OC(=O)N2CCCC2)CN[C@@H]1C(=O)N1CC[C@H](c2ccccc2)C1 (stereo not given in full) , tested on 72 kDa type IV collagenase (Homo sapiens): < 5.70

The recorded pIC50 with 72 kDa type IV collagenase (Homo sapiens) for CC(C)OC(=O)N(C)C1CN[C@H](C(=O)N2CC=C(c3ccccc3)CC2)[C@@H](C(=O)NO)C1 (stereo not given in full) was > 8.30

72 kDa type IV collagenase (Homo sapiens) assay, compound O=C(NO)[C@H]1CC(CC(=O)N2CCCC2)CN[C@@H]1C(=O)N1CC=C(c2ccccc2)CC1 (stereo not given in full) , recorded pIC50 = > 8.30

Tested on 72 kDa type IV collagenase (Homo sapiens): "CN1C[C@@H](OC(=O)N2CCC(F)(F)C2)C[C@H](C(=O)NO)[C@H]1C(=O)N1CCN(c2ccccc2)CC1" . Observed pIC50: < 5.70

Note: attention shifts to another entry.
I looked up "O=C(NO)[C@H]1C[C@H](OC(=O)N2CCCC2)CN[C@@H]1C(=O)N1CCC(c2ccccc2)CC1" and its pIC50 for 72 kDa type IV collagenase (Homo sapiens) was < 5.70
